The values you see were collected from paper PMC5740381.

System: HCV genotype 2a replicon
Assay explanation: Transient replicon assay with engineered substitutions
Format: cell-based, Hepatitis C virus
Setup conditions: 2a NS3 A156T; read-out: Mean EC50 ± SD
Measured metric: EC50 (nM)
Use nM as the unit, but write only the number.

Return value of EC50 for input C=C[C@@H]1C[C@]1(NC(=O)[C@@H]1C[C@@H]2CN1C(=O)[C@H](C(C)(C)C)NC(=O)O[C@@H]1C[C@H]1CCCCCc1nc3ccc(OC)cc3nc1O2)C(=O)NS(=O)(=O)C1CC1 [Grazoprevir] , no commentary. 1150

* * *

Tested on: HCV genotype 1a replicon
Assay explanation: Transient replicon assay with engineered substitutions
Assay type: cell-based, Hepatitis C virus
Setup conditions: 1a NS3 A156T; read-out: Mean EC50 ± SD
Measured metric: EC50 (nM)
Just the number please, in nM, no unit attached.

Please give the documented EC50 of C=C[C@@H]1C[C@]1(NC(=O)[C@@H]1C[C@@H]2CN1C(=O)[C@H](C(C)(C)C)NC(=O)O[C@@H]1C[C@H]1CCCCCc1nc3ccc(OC)cc3nc1O2)C(=O)NS(=O)(=O)C1CC1 92

* * *

Test system: HCV genotype 1b replicon
Assay explanation: Transient replicon assay with engineered substitutions
Type: cell-based, Hepatitis C virus
Setup conditions: 1b NS3 A156T; read-out: Mean EC50 ± SD
Measured metric: pEC50
A value of pEC50 is the negative decimal logarithm of a concentration given in moles per litre.

Using known records, supply pEC50 for C=C[C@@H]1C[C@]1(NC(=O)[C@@H]1C[C@@H]2CN1C(=O)[C@H](C(C)(C)C)NC(=O)O[C@@H]1C[C@H]1CCCCCc1nc3ccc(OC)cc3nc1O2)C(=O)NS(=O)(=O)C1CC1 7.41

* * *

System: HCV genotype 1a replicon
Assay explanation: Transient replicon assay with engineered substitutions
Format: cell-based, Hepatitis C virus
Setup conditions: 1a NS3 Y56H; read-out: Mean EC50 ± SD
Measured metric: EC50 (nM)
Report only the number, with the unit nM understood.

Give me measured EC50, please, for this molecule: C=C[C@@H]1C[C@]1(NC(=O)[C@@H]1C[C@@H]2CN1C(=O)[C@H](C(C)(C)C)NC(=O)O[C@@H]1C[C@H]1CCCCCc1nc3ccc(OC)cc3nc1O2)C(=O)NS(=O)(=O)C1CC1 2.2

* * *

Tested on: HCV genotype 2a replicon
Assay explanation: Transient replicon assay with engineered substitutions
Type: cell-based, Hepatitis C virus
Setup conditions: 2a NS3 A156V; read-out: Mean EC50 ± SD
Measured metric: pEC50
Quick note: pEC50 values are minus log10 of concentrations in mol/L.

Input C=C[C@@H]1C[C@]1(NC(=O)[C@@H]1C[C@@H]2CN1C(=O)[C@H](C(C)(C)C)NC(=O)O[C@@H]1C[C@H]1CCCCCc1nc3ccc(OC)cc3nc1O2)C(=O)NS(=O)(=O)C1CC1 , output reported pEC50. 5.71

* * *

System: HCV genotype 1a replicon
Assay explanation: Transient replicon assay with engineered substitutions
Assay type: cell-based, Hepatitis C virus
Setup conditions: 1a NS3 V55I; read-out: Mean EC50 ± SD
Measured metric: EC50 (nM)
Write the value in nM as a bare number.

Return value of EC50 for input C=C[C@@H]1C[C@]1(NC(=O)[C@@H]1C[C@@H]2CN1C(=O)[C@H](C(C)(C)C)NC(=O)O[C@@H]1C[C@H]1CCCCCc1nc3ccc(OC)cc3nc1O2)C(=O)NS(=O)(=O)C1CC1 , no commentary. 0.1
